Molecular target: PP1c^1-293 (potato Protein Phosphatase 1-c isoform-3) (potato)
Experiment: ITC
quantity: pKd
// pKd here means minus log10 of the molar concentration (mol/L)

-- ask Any idea what pKd was measured for Pi04314 WY-only (domain or fragment) DLLGLFAKSKLKKMMKSESFKLKRFGEWDDFTVGYIREKLKNKYPDLLLNYLNVYKKAGNEIVR ?
-- reply 4.91
